# target.or.test.system: Potassium voltage-gated channel subfamily E member 1 (Homo sapiens) + Potassium voltage-gated channel subfamily KQT member 1 (Homo sapiens) (UniProt P15382+P51787)
# experimental.protocol: KCNQ1/KCNE1 complex potentiators, confirmation, selectivity assay for KCNQ1 potentiator project, thallium flux, CHO-K1 KCNQ1/E1 cells (AID 493186)
# assay.setup: FluxOR thallium flux, at 10 µM
The source made the active and inactive calls.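 How the source made its calls: active means mean duplicate activation above the buffer control mean plus 5 SD of those controls; inactive means the rest.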
readout: activation

Answered examples (5):
COc1ccc(NC(=S)NCCC(c2ccccc2)c2ccccc2)c(OC)c1 : inactive
Cc1ccc(C(=O)CC(=O)c2ccc(C)cc2O)cc1 : inactive
O=C(Nc1cccnc1)NC1CCCCC1 : inactive
Cc1cccc(OCc2n[nH]c(=S)n2C2CCCCC2)c1 : inactive
S=c1[nH]nc(-c2ccco2)n1/N=C/c1ccc(Br)s1 : inactive

Batch of 6 molecules: report activation for each.
1. O=C(NC(=S)Nc1cccc([N+](=O)[O-])c1)c1ccco1
2. COc1ccc(Cn2c(=O)c3[nH]cnc3n(-c3ccccc3C)c2=O)cc1
3. CCc1ccc(NC(=O)/C(C#N)=C/c2ccncc2)cc1
4. O=C(NC(=S)Nc1nc2c(s1)CCCC2)c1ccccc1
5. O=C(NC(=S)Nc1cccc(Cl)c1N1CCCCC1)c1cccs1
6. N#Cc1ccc(Cl)cc1NC(=O)COC(=O)[C@H](CCC(N)=O)NC(=O)c1ccc(F)cc1

1. inactive
2. inactive
3. inactive
4. inactive
5. inactive
6. inactive
